Test system: P388 leukemia ip, CD2F1 mice, survival T/C
assay.method.text: NCI In Vivo Anticancer Drug Screen. Data for tumor model P388 Leukemia (intraperitoneal) in CD2F1 (CDF1) mice
details: endpoint: median survival time; dose: 200.0 mg/kg/injection; schedule: Q01DX005 (ip); vehicle: water; higher = longer survival
Toxic doses and inconclusive results are not listed.
Assignment: determine reported T/C for the given molecules.

# input Reported T/C, molecule CCCCSc1nn(CCC#N)c(=O)[nH]c1=O : ____
# output 100 % of control

# input Ok, now CC(O)(CCO)CCO
# output 99 % of control

# input Moving on to the next molecule: COC(=O)/C=C/c1cccc[n+]1[O-]
# output 107 % of control

# input Similarly, COC(=O)C1O[C@H]1c1cccc[n+]1[O-] (mixture of isomers) ?
# output 103 % of control

Every entry's value here was drawn from PubChem BioAssay AID330.
